# Tested on: BV-2
# ASSAY_PROCEDURE: Anti-neuroinflammatory activity in mouse BV2 cells assessed as inhibition of LPS-induced TNF-alpha production by measuring TNF-alpha level at 50 uM preincubated for 1 hr followed by LPS stimulation and measured after 24 hrs by ELISA (reference value: 100 +/- 0%)
# Format: functional
# CONDITION_DETAILS: time 25 hrs
Threshold 90%. TNF-alpha level (% of LPS control) below it: 1 (yes). TNF-alpha level (% of LPS control) at it or above: 0 (no).

• FC(F)(F)c1ccc(CN2CCc3cc4c(cc3C2)OCO4)cc1 = 0 (no)
• COc1cccc(CN2CCc3ccccc3C2)c1OC = 0 (no)
• COc1cccc(OC)c1C(=O)N1CCc2cc3c(cc2C1)OCO3 = 1 (yes)
• COc1ccc(CC2NCCc3cc4c(cc32)OCO4)cc1OC (stereo unspecified) = 1 (yes)
• COc1cccc(CN2CCc3cc4c(cc3C2)OCO4)c1OC = 1 (yes)
• COc1ccc(CC2c3cc4c(cc3CCN2C)OCO4)cc1OC (stereo unspecified) = 1 (yes)
• COc1ccc2c(c1)CCN(Cc1c(OC)cccc1OC)C2 = 1 (yes)
• COc1ccc2c(c1OC)C[N+]1(Cc3ccccc3)CCc3cc4c(cc3C1C2)OCO4.[Br-] (stereo unspecified) = 1 (yes)
• COc1ccc(CC2c3cc4c(cc3CC[N+]2(C)C)OCO4)cc1OC.[I-] (stereo unspecified) = 0 (no)
• COc1cccc(OC)c1CN1CCc2cc3c(cc2C1)OCO3 = 1 (yes)
• COc1cccc(OC)c1CN1CCc2ccccc2C1 = 1 (yes)
• COc1ccc2c(c1OC)CN1CCc3cc4c(cc3C1C2)OCO4 (stereo unspecified) [TETRAHYDROBERBERINE] = 1 (yes)
• COc1ccc2c(c1)CN(Cc1c(OC)cccc1OC)CC2 = 1 (yes)
• COc1ccccc1CN1CCc2cc3c(cc2C1)OCO3 = 1 (yes)
• COc1cccc(CN2CCc3cc4c(cc3C2)OCO4)c1 = 1 (yes)
• Cc1cccc(C)c1CN1CCc2cc3c(cc2C1)OCO3 = 0 (no)
• Clc1cccc(Cl)c1CN1CCc2cc3c(cc2C1)OCO3 = 0 (no)
• COc1ccc(CN2CCc3cc4c(cc3C2)OCO4)c(OC)c1 = 0 (no)
